B1: glmS ribozyme (parent)
chain: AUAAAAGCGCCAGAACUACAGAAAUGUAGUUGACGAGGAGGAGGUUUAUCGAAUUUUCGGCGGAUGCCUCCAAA

# Variants of: B1
# experiment_summary: self-cleavage kobs at 10000 uM GlcN6P; higher = faster cleavage; RNA array
# condition: with glucosamine-6-phosphate
Variants at the floor of the assay were thinned out.
Label Y when self-cleavage kobs at 10000 uM GlcN6P is at or above 0.0005 s⁻¹; anything below gets N.

Input: Would you say G29C U56C shows self-cleavage kobs at 10000 uM GlcN6P at minimum 0.0005 s⁻¹?
Output: Y

Input: Determine whether this variant has self-cleavage kobs at 10000 uM GlcN6P no lower than 0.0005 s⁻¹: G37C G43C
Output: N

Input: Reported self-cleavage kobs at 10000 uM GlcN6P reaches at least 0.0005 s⁻¹ for C10U A12G G13U A14C G41A ?
Output: N

Input: Say whether G9A A15G G35A A42U C70U shows self-cleavage kobs at 10000 uM GlcN6P of 0.0005 s⁻¹ or more.
Output: N
